# protocol: Hygroscopicity study (Chinese Pharmacopoeia 2015, 9103)
# Assay type: physicochemical
# stated.conditions: 25° C.±1° C., saturated ammonium chloride solution, 24 hours
measure.name: Hygroscopic weight gain
Write your answer as a measured quantity: the number, then the unit.

What value of measured Hygroscopic weight gain is listed for CC[C@@H]([C@H](C)OP(=O)(O)O)n1ncn(-c2ccc(N3CCN(c4ccc(OC[C@@H]5CO[C@@](Cn6cncn6)(c6ccc(F)cc6F)C5)cc4)CC3)cc2)c1=O [Example 3] ?
0.15%

What value of measured Hygroscopic weight gain is listed for CC[C@@H]([C@H](C)OP(=O)(O)O)n1ncn(-c2ccc(N3CCN(c4ccc(OC[C@@H]5CO[C@@](Cn6cncn6)(c6ccc(F)cc6F)C5)cc4)CC3)cc2)c1=O.CNC[C@H](O)[C@@H](O)[C@H](O)[C@H](O)CO ?
0.88%

What value of measured Hygroscopic weight gain is listed for CC[C@@H]([C@H](C)OP(=O)(O)O)n1ncn(-c2ccc(N3CCN(c4ccc(OC[C@@H]5CO[C@@](Cn6cncn6)(c6ccc(F)cc6F)C5)cc4)CC3)cc2)c1=O.N=C(N)NCCC[C@H](N)C(=O)O [Comparative Example 5, Posaconazole Phosphate Monoarginine Salt] ?
1.02%
